- Assay target: UniProt P34972
- Sequence (P34972 whole entry): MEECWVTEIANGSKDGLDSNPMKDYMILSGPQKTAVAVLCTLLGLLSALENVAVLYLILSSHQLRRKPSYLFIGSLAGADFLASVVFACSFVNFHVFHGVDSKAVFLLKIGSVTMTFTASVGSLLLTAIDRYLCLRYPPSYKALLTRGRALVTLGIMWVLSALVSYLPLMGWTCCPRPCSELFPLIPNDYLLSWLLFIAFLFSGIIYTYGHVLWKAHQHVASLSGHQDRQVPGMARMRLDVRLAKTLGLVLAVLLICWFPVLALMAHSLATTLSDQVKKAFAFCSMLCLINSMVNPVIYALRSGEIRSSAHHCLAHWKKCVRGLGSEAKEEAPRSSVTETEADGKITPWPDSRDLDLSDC
- Test summary: Displacement of [3H]-CP-55940 from human recombinant CB2 receptor expressed in HEK293 cells after 90 mins by Competition binding assay
Metric: pKi
// field semantics: pKi = negative decimal log of concentration (mol/L)

1) CCCCCn1c(=O)c(C(=O)NCc2ccc(OC)cc2)c(O)c2cc(-c3cccs3)ccc21    7.70
2) CCCCCn1c(=O)c(C(=O)NC23CC4CC(CC(C4)C2)C3)c(O)c2cc(C(C)C)c(F)cc21    7.18
3) CCCCCn1c(=O)c(C(=O)NC23CC4CC(CC(C4)C2)C3)c(O)c2ccc(F)cc21    9.03
4) CC(C)c1ccc2c(c1)c(=O)c(C(=O)NC13CC4CC(CC(C4)C1)C3)cn2CCN(C)C    6.84
5) CCCCCn1c(=O)c(C(=O)NC23CC4CC(CC(C4)C2)C3)c(O)c2cc(C(C)C)ccc21    9.28
6) COc1ccc(CNC(=O)c2c(O)c3cc(-c4cccs4)ccc3n(CCCCO)c2=O)cc1    5.65

Attention now turns to another entry.
Find pKi (UniProt P34972) for the entry CC(C)c1ccc2c(c1)c(=O)c(C(=O)NC13CC4CC(CC(C4)C1)C3)cn2CCN1CCS(=O)(=O)CC1
5.71

---

- Assay target: UniProt:P34972
- Test summary: Displacement of [3H]-CP-55940 from human recombinant CB2 receptor expressed in HEK293 cells after 90 mins by Competition binding assay
Metric: pKi
As a rule, pKi stands for the negative log10 of the concentration, concentration in M.

Before answering, review these 5 worked examples.
1. COCCOCn1cc(C(=O)NC23CC4CC(CC(C4)C2)C3)c(=O)c2ccc(F)cc21    7.25
2. O=C(NCc1ccc(F)cc1)c1c(O)c2cc(-c3ccco3)ccc2n(CCCCO)c1=O    6.60
3. O=C(NC12CC3CC(CC(C3)C1)C2)c1cn(CCN2CCS(=O)(=O)CC2)c2cc(F)ccc2c1=O    6.61
4. COCCOCn1cc(C(=O)NC23CC4CC(CC(C4)C2)C3)c(=O)c2cc(C(C)C)ccc21    6.32
5. CN(C)CCn1cc(C(=O)NC23CC4CC(CC(C4)C2)C3)c(=O)c2ccc(F)cc21    7.22

Recorded pKi of O=C(NCC1CCCCC1)c1c(O)c2ccccc2n(CCCCO)c1=O , please.
7.39

Now give it for CC(C)c1cc2c(=O)c(C(=O)NC34CC5CC(CC(C5)C3)C4)cn(CCN(C)C)c2cc1F too.
7.96
